The reported numbers originate from ChEMBL document CHEMBL1158636.

Assay: Inhibition of gamma-secretase-mediated notch cleavage after 2 hrs by ELISA
We label by threshold. Values of IC50 strictly beneath 10 nM are yes. Values of 10 nM and up are no.

Input: Report whether reported IC50 is lower than 10 nM (strictly) for O=C1c2[nH]ncc2C(C2CC2)N(S(=O)(=O)c2ccc(C(F)(F)F)cc2)C12CCCC2 (racemic)
Output: yes

Input: Report whether reported IC50 is lower than 10 nM (strictly) for O=C1c2[nH]ncc2C(C2CC2)N(S(=O)(=O)c2ccc(C(F)(F)F)nc2)C12CC2 (stereo in doubt; 16f)
Output: no

Input: Report whether reported IC50 is lower than 10 nM (strictly) for C[C@@H]1N(S(=O)(=O)c2ccc(C(F)(F)F)cc2)[C@H](C2CC2)c2cn[nH]c2C1(F)F (relative stereo)
Output: no

Input: Report whether reported IC50 is lower than 10 nM (strictly) for CC(C)(C)C1C(=O)c2[nH]ncc2C(C2CC2)N1S(=O)(=O)c1ccc(C(F)(F)F)nc1 (stereo in doubt; 3t)
Output: yes

Input: Report whether reported IC50 is lower than 10 nM (strictly) for O=C1c2[nH]ncc2C(C2CC2)N(S(=O)(=O)c2ccc(Cl)s2)C12CC2 (racemic)
Output: no

Input: Report whether reported IC50 is lower than 10 nM (strictly) for CC(C)C1c2cn[nH]c2C(F)(F)CN1S(=O)(=O)c1ccc(Cl)cc1 (racemic)
Output: no
